Data credit: PubChem BioAssay (Tox21)

system-name: Estrogen receptor (Homo sapiens)
assay-method-text: qHTS assay to identify small molecule antagonists of the estrogen receptor alpha (ER-alpha) signaling pathway (AID 743069)
study-conditions: HEK293 ER-alpha-UAS-bla, beta-lactamase ratio, antagonist mode; series mostly up to 69.4 µM
Active and inactive are the calls of the source. The call rests on the fitted dose curve; in most records, active means well fitted curve in the direction sought with a large enough effect in the signal ratio in the repeat runs (not every such curve was filed as active); inconclusive means weak or mixed curves, or effect the other way; inactive means no such curve, though single readings can be large or run the other way; the % refers to the signal ratio.
Would you mind answering with one of these outcomes? YES = active, NO = inactive

## Input What is the recorded call for this molecule in the test? Cc1cn[nH]c1
## Output NO

## Input O=C1OC(=O)c2cccc3cccc1c23 , same question.
## Output NO

## Input CCOC(=O)[C@@](C)(N)Cc1ccc(O)c(O)c1 , same question.
## Output NO

## Input CCCCOc1ccc(C(=O)CCN2CCCCC2)cc1 , same question.
## Output NO

## Input O=Nc1ccc(NO)cc1 , same question.
## Output NO

## Input CCOC(=O)N1CCC(=C2c3ccc(Cl)cc3CCc3cccnc32)CC1 , same question.
## Output YES

====

assay-method-text: qHTS assay for identifying genotoxic compounds that show differential cytotoxicity against isogenic chicken DT40 cell lines with known DNA damage response pathways - Rad54/Ku70 mutant cell line (AID 743015); further: nearly all actives have a fitted effect of over 60% in size
study-conditions: DT40 Rad54/Ku70 mutant viability, CellTiter-Glo, 40 h; series mostly up to 66.8 µM
Records with an inconclusive call do not appear. Activity calls are given as the source filed them. The call rests on the fitted dose curve; in most records, active means well fitted cell-killing curve with a large enough effect in the repeat runs; inconclusive means weak or mixed curves; inactive means no such curve, though single readings can be large or run the other way.
Would you mind answering with one of these outcomes? 1.0 (active), 0.0 (inactive)

Record excerpt, results attached:
[
  {
    "compound": "COC(=O)C1=C(C)NC(C)=C(C(=O)OCCCN2CCC(c3ccccc3)(c3ccccc3)CC2)C1c1cccc([N+](=O)[O-])c1 (stereo not given)",
    "group": 1.0
  },
  {
    "compound": "Cc1ccc(N)cc1O",
    "group": 1.0
  },
  {
    "compound": "CCOC(=O)C1=C(C)NC(C)=C(C(=O)OCC)C1c1ccccc1/C=C/C(=O)OC(C)(C)C",
    "group": 1.0
  }
]

Kindly consider the entry below.
## Input What is the recorded call for this compound in the test? CCOC(=O)COc1ccc(C)cc1
## Output 0.0

====

assay-method-text: qHTS assay to identify small molecule antagonists of the estrogen receptor alpha (ER-alpha) signaling pathway using the BG1 cell line (AID 743080);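 further: BG1 cells stimulated with 17beta-estradiol alongside compound; nearly all actives have a fitted effect of over 25% in size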
study-conditions: BG1Luc4E2 ERE-luciferase antagonist mode, luminescence
Records with an inconclusive call do not appear. Activity calls are given as the source filed them. Calls follow the shape of the full dose curve.
Would you mind answering with one of these outcomes? true (active), false (inactive)

[
  {
    "structure-string": "CN(C)CCCN1c2ccccc2Sc2ccc(C(F)(F)F)cc21",
    "group": "false"
  },
  {
    "structure-string": "CCCSS/C(CCO)=C(\\C)N(C=O)Cc1cnc(C)nc1N",
    "group": "false"
  },
  {
    "structure-string": "O=C1OC(=O)c2cccc3cccc1c23",
    "group": "false"
  },
  {
    "structure-string": "CCc1ccc(O)c(C(C)(C)C)c1",
    "group": "false"
  },
  {
    "structure-string": "CCCCCCCC/C=C\\CCCCCCCC(=O)N(C)CC(=O)O",
    "group": "false"
  },
  {
    "structure-string": "CC(C)N=C(N)/N=C(\\N)Nc1ccc(Cl)cc1",
    "group": "false"
  }
]

## Input What is the recorded call for this molecule in the test? CCCCCCCCCCCCN(CCO)CCO
## Output true

## Input CCCCCCCCCCCCCCCC , same question.
## Output false

## Input Nc1cc(Cl)c([N+](=O)[O-])cc1O , same question.
## Output false
